System: HT-1080.hFAP tumor-bearing mice
TEST_PROTOCOL: Biodistribution studies in xenografted mice
Type: in vivo
ASSAY_SETUP: 4 hours p.i., i.v.
VALUE_KIND: Biodistribution: Lung (% I.A./g)

{"columns": ["COMPOUND", "EXPERIMENTAL_RESULT"],
 "data": [
  ["CN(C(=O)CCC(=O)NCCNC(=O)CCC(C(=O)O)N1CCN(CC(=O)[O-])CCN(CC(=O)[O-])CC1)c1ccc2nccc(C(=O)NCC(=O)N3CC(F)(F)CC3C#N)c2c1.[61Cu+2] (centres unmarked) [[^61Cu]Cu-NODAGA-2]", 0.4]
]}

P = N#CC1CC(F)(F)CN1C(=O)CNC(=O)c1ccnc2ccc(NC(=O)CCC(=O)N3CCN(C(=O)CCC(C(=O)O)N4CCN(CC(=O)[O-])CCN(CC(=O)[O-])CC4)CC3)cc12.[61Cu+2] (centres unmarked) [[^61Cu]Cu-NODAGA-3]
Q = CN(C(=O)CCC(=O)N1CCN(C(=O)CCC(C(=O)O)N2CCN(CC(=O)[O-])CCN(CC(=O)[O-])CC2)CC1)c1ccc2nccc(C(=O)NCC(=O)N3CC(F)(F)CC3C#N)c2c1.[61Cu+2] (centres unmarked) [[^61Cu]Cu-NODAGA-4]
R = CN(CCCN1CCN(C(=O)CCC(C(=O)O)N2CCN(CC(=O)[O-])CCN(CC(=O)[O-])CC2)CC1)c1ccc2nccc(C(=O)NCC(=O)N3CC(F)(F)CC3C#N)c2c1.[61Cu+2] (centres unmarked) [[^61Cu]Cu-NODAGA-FAPI-46, reference compound]
Q) Provide the items ranked by increasing Biodistribution: Lung. Give me the labels in the order the question wants.
A) Q, P, R

* * *

System: HT-1080.hFAP tumor-bearing mice
TEST_PROTOCOL: Biodistribution studies in xenografted mice
Format: in vivo
ASSAY_SETUP: 4 hours p.i., i.v.
VALUE_KIND: Biodistribution: Stomach (% I.A./g)

{"columns": ["MOLECULE", "TARGET_SYSTEM", "EXPERIMENTAL_RESULT"],
 "data": [
  ["N#CC1CC(F)(F)CN1C(=O)CNC(=O)c1ccnc2ccc(NC(=O)CCC(=O)N3CCN(C(=O)CCC(C(=O)O)N4CCN(CC(=O)[O-])CCN(CC(=O)[O-])CC4)CC3)cc12.[61Cu+2] (centres unmarked) [[^61Cu]Cu-NODAGA-3]", "HT-1080.hFAP tumor-bearing mice", 0.5],
  ["N#CC1CC(F)(F)CN1C(=O)CNC(=O)c1ccnc2ccc(NC(=O)CCC(=O)NCCNC(=O)CCC(C(=O)O)N3CCN(CC(=O)[O-])CCN(CC(=O)[O-])CC3)cc12.[61Cu+2] (centres unmarked) [[^61Cu]Cu-NODAGA-1]", "HT-1080.hFAP tumor-bearing mice", 0.7]
]}

a = CN(CCCN1CCN(C(=O)CCC(C(=O)O)N2CCN(CC(=O)[O-])CCN(CC(=O)[O-])CC2)CC1)c1ccc2nccc(C(=O)NCC(=O)N3CC(F)(F)CC3C#N)c2c1.[61Cu+2] (centres unmarked) [[^61Cu]Cu-NODAGA-FAPI-46, reference compound]
b = CN(C(=O)CCC(=O)N1CCN(C(=O)CCC(C(=O)O)N2CCN(CC(=O)[O-])CCN(CC(=O)[O-])CC2)CC1)c1ccc2nccc(C(=O)NCC(=O)N3CC(F)(F)CC3C#N)c2c1.[61Cu+2] (centres unmarked) [[^61Cu]Cu-NODAGA-4]
c = CN(C(=O)CCC(=O)NCCNC(=O)CCC(C(=O)O)N1CCN(CC(=O)[O-])CCN(CC(=O)[O-])CC1)c1ccc2nccc(C(=O)NCC(=O)N3CC(F)(F)CC3C#N)c2c1.[61Cu+2] (centres unmarked) [[^61Cu]Cu-NODAGA-2]
Q) Would you mind ranking these molecules by ascending Biodistribution: Stomach? Please, when replying, give the labels in the order that was requested.
A) b, c, a
(b: 0.2 % I.A./g, c: 0.3 % I.A./g, a: 0.6 % I.A./g)

* * *

System: HT-1080.hFAP tumor-bearing mice
TEST_PROTOCOL: Biodistribution studies in xenografted mice
Assay type: in vivo
ASSAY_SETUP: 1 hour p.i., i.v.
VALUE_KIND: Biodistribution: Intestine (% I.A./g)

Would you please look over these solved cases?
{"columns": ["MOLECULE", "VALUE_KIND", "EXPERIMENTAL_RESULT"],
 "data": [
  ["N#CC1CC(F)(F)CN1C(=O)CNC(=O)c1ccnc2ccc(NC(=O)CCC(=O)N3CCN(C(=O)CCC(C(=O)O)N4CCN(CC(=O)[O-])CCN(CC(=O)[O-])CC4)CC3)cc12.[61Cu+2] (stereo not shown) [[^61Cu]Cu-NODAGA-3]", "Biodistribution: Intestine", 0.8],
  ["CN(C(=O)CCC(=O)NCCNC(=O)CCC(C(=O)O)N1CCN(CC(=O)[O-])CCN(CC(=O)[O-])CC1)c1ccc2nccc(C(=O)NCC(=O)N3CC(F)(F)CC3C#N)c2c1.[61Cu+2] (stereo not shown) [[^61Cu]Cu-NODAGA-2]", "Biodistribution: Intestine", 0.5]
]}

I = CN(C(=O)CCC(=O)N1CCN(C(=O)CCC(C(=O)O)N2CCN(CC(=O)[O-])CCN(CC(=O)[O-])CC2)CC1)c1ccc2nccc(C(=O)NCC(=O)N3CC(F)(F)CC3C#N)c2c1.[61Cu+2] (stereo not shown) [[^61Cu]Cu-NODAGA-4]
II = CN(CCCN1CCN(C(=O)CCC(C(=O)O)N2CCN(CC(=O)[O-])CCN(CC(=O)[O-])CC2)CC1)c1ccc2nccc(C(=O)NCC(=O)N3CC(F)(F)CC3C#N)c2c1.[61Cu+2] (stereo not shown) [[^61Cu]Cu-NODAGA-FAPI-46, reference compound]
Q) Of I and II , which carries the smaller reported Biodistribution: Intestine figure? Write the label of whichever entry you select.
A) I
(I: 0.5 % I.A./g, II: 1.0 % I.A./g)

* * *

System: HT-1080.hFAP tumor-bearing mice
TEST_PROTOCOL: Biodistribution studies in xenografted mice
Format: in vivo
ASSAY_SETUP: 1 hour p.i., i.v.
VALUE_KIND: Biodistribution: Stomach (% I.A./g)

Known Biodistribution: Stomach results, listed for orientation:
{"columns": ["COMPOUND", "UNIT_OF_MEASURE", "EXPERIMENTAL_RESULT"],
 "data": [
  ["CN(C(=O)CCC(=O)NCCNC(=O)CCC(C(=O)O)N1CCN(CC(=O)[O-])CCN(CC(=O)[O-])CC1)c1ccc2nccc(C(=O)NCC(=O)N3CC(F)(F)CC3C#N)c2c1.[61Cu+2] (stereo not shown) [[^61Cu]Cu-NODAGA-2]", "% I.A./g", 0.6],
  ["CN(CCCN1CCN(C(=O)CCC(C(=O)O)N2CCN(CC(=O)[O-])CCN(CC(=O)[O-])CC2)CC1)c1ccc2nccc(C(=O)NCC(=O)N3CC(F)(F)CC3C#N)c2c1.[61Cu+2] (stereo not shown) [[^61Cu]Cu-NODAGA-FAPI-46, reference compound]", "% I.A./g", 1.0]
]}

1 = N#CC1CC(F)(F)CN1C(=O)CNC(=O)c1ccnc2ccc(NC(=O)CCC(=O)N3CCN(C(=O)CCC(C(=O)O)N4CCN(CC(=O)[O-])CCN(CC(=O)[O-])CC4)CC3)cc12.[61Cu+2] (stereo not shown) [[^61Cu]Cu-NODAGA-3]
2 = CN(C(=O)CCC(=O)N1CCN(C(=O)CCC(C(=O)O)N2CCN(CC(=O)[O-])CCN(CC(=O)[O-])CC2)CC1)c1ccc2nccc(C(=O)NCC(=O)N3CC(F)(F)CC3C#N)c2c1.[61Cu+2] (stereo not shown) [[^61Cu]Cu-NODAGA-4]
Q) Please indicate which entry, 1 or 2 , has the lower recorded Biodistribution: Stomach value. # answer = label of selected item
A) 2

* * *

Tested on: HT-1080.hFAP tumor-bearing mice
TEST_PROTOCOL: Biodistribution studies in xenografted mice
Format: in vivo
ASSAY_SETUP: 1 hour p.i., i.v.
VALUE_KIND: Biodistribution: Spleen (% I.A./g)

{"columns": ["MOLECULE", "EXPERIMENTAL_RESULT"],
 "data": [
  ["CN(C(=O)CCC(=O)N1CCN(C(=O)CCC(C(=O)O)N2CCN(CC(=O)[O-])CCN(CC(=O)[O-])CC2)CC1)c1ccc2nccc(C(=O)NCC(=O)N3CC(F)(F)CC3C#N)c2c1.[61Cu+2] (centres unmarked) [[^61Cu]Cu-NODAGA-4]", 0.4],
  ["CN(CCCN1CCN(C(=O)CCC(C(=O)O)N2CCN(CC(=O)[O-])CCN(CC(=O)[O-])CC2)CC1)c1ccc2nccc(C(=O)NCC(=O)N3CC(F)(F)CC3C#N)c2c1.[61Cu+2] (centres unmarked) [[^61Cu]Cu-NODAGA-FAPI-46, reference compound]", 0.7],
  ["N#CC1CC(F)(F)CN1C(=O)CNC(=O)c1ccnc2ccc(NC(=O)CCC(=O)N3CCN(C(=O)CCC(C(=O)O)N4CCN(CC(=O)[O-])CCN(CC(=O)[O-])CC4)CC3)cc12.[61Cu+2] (centres unmarked) [[^61Cu]Cu-NODAGA-3]", 0.5]
]}

A = CN(C(=O)CCC(=O)NCCNC(=O)CCC(C(=O)O)N1CCN(CC(=O)[O-])CCN(CC(=O)[O-])CC1)c1ccc2nccc(C(=O)NCC(=O)N3CC(F)(F)CC3C#N)c2c1.[61Cu+2] (centres unmarked) [[^61Cu]Cu-NODAGA-2]
B = N#CC1CC(F)(F)CN1C(=O)CNC(=O)c1ccnc2ccc(NC(=O)CCC(=O)NCCNC(=O)CCC(C(=O)O)N3CCN(CC(=O)[O-])CCN(CC(=O)[O-])CC3)cc12.[61Cu+2] (centres unmarked) [[^61Cu]Cu-NODAGA-1]
Q) // compare: A vs B , metric Biodistribution: Spleen, want the smaller Write the label of whichever entry you select.
A) A
